FYI, the data here is from ChEMBL document CHEMBL1201862.

Tested on: OVCAR-4
Protocol Description: NCI tumour cell line growth inhibition, 48 h
Activity calls are given as the source filed them. Rule as the data show it: active = GI50 up to about 1.1 µM and inactive = higher.
Listing of entries alongside the reported GI50.

Would you please look over these solved cases?
# Smiles Notation, GI50
records = [
    ("CCOC(=O)C1(F)S(=O)(=O)OCCOS1(=O)=O", "> 100 µM (inactive)"),
    ("Brc1ccc2[nH]c3c(C4=NCCC4)nccc3c2c1", "17.1 µM (inactive)"),
]

Name the recorded GI50 for `O=[N+]([O-])c1ccc(Cc2nc3cc4ccccc4cc3[nH]2)cc1C(F)(F)F` .
17.5 µM (inactive)

* * *

Test system: HOP-92
Protocol Description: NCI tumour cell line growth inhibition, 48 h
Activity calls are given as the source filed them. Rule as the data show it: active = GI50 up to about 1.1 µM and inactive = higher.
Result category, one only: 1 for active, -1 for inactive

Worked cases, answers included:
# Compound, System Name, Class Name
data = [
    ("NS(=O)(=O)c1ccc(/N=N/c2ccc(O)cc2)cc1", "HOP-92", -1),
    ("CCOC(=O)c1sc2nc(SC)nc3c2c1NCN3c1ccccc1Cl", "HOP-92", -1),
    ("O=[N+]([O-])c1ccc(/C=N/n2c(CO)nc3ccccc32)o1", "HOP-92", -1),
    ("C#CCN1CCN(C(=S)N/N=C(\\C)c2ccccn2)CC1", "HOP-92", 1),
    ("O=C1CCC(CCc2nc3ccccc3[nH]2)(c2ccccc2)C(=O)N1 (stereo unspecified)", "HOP-92", -1),
]

Assay outcome for CO/N=C1\CC(NC(=O)C(F)(F)F)c2ccsc21 (stereo unspecified) : what was it?
-1

* * *

Test system: TK-10
Protocol Description: NCI tumour cell line growth inhibition, 48 h
Active and inactive are the calls of the source. Rule as the data show it: active = GI50 up to about 1.1 µM and inactive = higher.
The categories you may choose from are active, inactive

Example results:
# Compound, Class Name
records = [
    ("CCC1C(c2cc(OC)c(OC)c(OC)c2)c2cc3c(cc2OC1N1CCCC1)OCO3 (centres undefined)", "inactive"),
    ("NS(=O)(=O)c1ccc(/N=N/c2ccc(O)cc2)cc1", "inactive"),
    ("NCCCN1CCN(c2ccccc2)CC1", "inactive"),
    ("O=C1C(c2c(O)[nH]c3ccc(I)cc23)=Nc2ccccc21", "inactive"),
    ("CCOc1ccc2nc(NC(=O)c3c/c(=N\\NC(=O)C[N+](C)(C)C)c4ccc(O)cc4o3)sc2c1", "inactive"),
]

# input for lookup
Could you check what this test reported for `O=C1CC[C@@H](S(=O)(=O)c2ccccc2)[C@H](/C=C/c2ccccc2)O1` ?
inactive

* * *

System: NCI-H226
Protocol Description: NCI tumour cell line growth inhibition, 48 h
Activity calls are given as the source filed them. Rule as the data show it: active = GI50 up to about 1.1 µM and inactive = higher.
Use one of these outcomes when replying: active, inactive

# Compound, System Name, Class Name
rows = [
    ("CNC(=O)OCc1c(CO)nc(SC)n1C", "NCI-H226", "inactive"),
    ("CN1CC[N+](C)=C1c1ccccc1", "NCI-H226", "inactive"),
    ("CC1=NN(c2nc(N)nc(CC#N)n2)C(C)(C)C1", "NCI-H226", "inactive"),
]

Please indicate how the test categorized `CCOC(=O)NC(=O)c1c[nH]c(=O)[nH]c1=O` .
inactive

For `CN(C)/C=C/c1c2c(nc3ccccc13)C(=O)c1cccnc1C2=O` , which call appears in the assay record?
active

# outcome recorded in this test, key = `C\C(=N/N=C1/C(=C\N(C)C)C(=O)NC(=O)N1C)c1ccc(Cl)cc1`
inactive

Which outcome did this test record for the compound `COC(=O)CC[N+]1([O-])CC1` ?
inactive

* * *

Tested on: LOX IMVI
Protocol Description: NCI tumour cell line growth inhibition, 48 h
Active and inactive are the calls of the source. Cut-off read from the data, not from the text of the source: active = GI50 up to about 1.1 µM and inactive = higher.
Outcomes you can answer with include only these: active, inactive

Before answering, review these 5 worked examples.
# Compound, System Name, Class Name
records = [
    ("CCc1ccccc1/N=N/C(=O)NNc1ccccc1CC", "LOX IMVI", "inactive"),
    ("CC(C)(C)N1CSC(=S)N(Cc2ccco2)C1", "LOX IMVI", "inactive"),
    ("CNC(=O)OCc1c(CO)nc(SC)n1C", "LOX IMVI", "inactive"),
    ("CC1=CC(=O)N(n2c(Cc3ccccc3)n[nH]c2=O)C1=O", "LOX IMVI", "inactive"),
    ("COc1cc2c3cc1Oc1cc(ccc1O)C[C@@H]1c4c(cc(OC)c(O)c4Oc4ccc(cc4)C[C@@H]3N(C)CC2)CC[N+]1(C)C", "LOX IMVI", "inactive"),
]

Recorded call for `O=[N+]([O-])/C(C(Cl)=C(Cl)Cl)=C1/OCCS1` ?
inactive

Outcome logged for `CCOP(=O)(OCC)/C(C#N)=C/c1ccnc2ccccc12` in this assay:
inactive

Called result for `COC(=O)c1c2cccccc-2c(Cc2c3cccccc-3c(C(=O)OC)c2O)c1O`
inactive

Hello, I am checking results. What call was entered for `O=c1cc(-c2ccccc2)oc2c1ccc1nc3ccccc3c(O)c12` ?
inactive

# lookup: test call for `CSc1ccc(NC(=S)NN(C)C)cc1`
inactive

Each compound tested received a call. Report the one for `CCN1C(=O)/C(=C/Nc2ccccc2)S/C1=N/Nc1nc(-c2ccc(O)c(O)c2)cs1` .
inactive

// return assay outcome for `CN(C)/C=C/c1c2c(nc3ccccc13)C(=O)c1cccnc1C2=O`
active

// return assay outcome for CC1=CC23C(COC(=O)C24CO4)C(C(=O)O)=CC3C1C (stereo not drawn)
inactive

Outcome? `CCOC(OCC)c1ccc(/C=C/c2cc(OC)c(OC)c(OC)c2)cc1`
inactive

Lab log entry: `COC(=O)C1(C(=O)OC)CC2=C(S(=O)(=O)c3ccccc3)C[C@@H](C#N)[C@H]2C1` — outcome as called in the assay?
inactive

* * *

Tested on: MCF7
Protocol Description: NCI tumour cell line growth inhibition, 48 h
The source made the active and inactive calls. Cut-off read from the data, not from the text of the source: active = GI50 up to about 1.1 µM and inactive = higher.
Some molecules, each annotated with its measured GI50.

Some entries whose results are on file:
# Molecule, GI50
measured = [
    ("OCC(O)CNc1ncnc2ccccc12 (configuration not stated)", "> 100 µM (inactive)"),
    ("CCOC(=O)C1C(c2ccc(O)c(OC)c2)c2c(n[nH]c2O)CC1(C)O (configuration not stated)", "> 100 µM (inactive)"),
    ("O=S(=O)(O)c1cc(S(=O)(=O)O)c2c(/N=N/c3cccc4ccccc34)c(O)ccc2c1", "> 100 µM (inactive)"),
    ("CN(C)CCS/C(=N\\c1ccccc1)N1C=COC=C1", "17.9 µM (inactive)"),
    ("O=C(O)c1ccccc1Sc1ccccc1[N+](=O)[O-]", "> 100 µM (inactive)"),
]

Item under review: `COc1cc(C(=O)Nc2c3ccccc3nc3ccccc23)cc(OC)c1OC` . Reported GI50?
> 100 µM (inactive)

Look up GI50: `COc1cc(/C=C2\C[C@H]3[C@@H]4CC=C5C[C@@H](O)CC[C@]5(C)[C@H]4CC[C@]3(C)C2=O)cc(OC)c1OC`
20.8 µM (inactive)

* * *

Measured GI50, listed per entry.
System: U-251
Protocol Description: NCI tumour cell line growth inhibition, 48 h
The source made the active and inactive calls. No stated cut-off is given here; in the data, active = GI50 up to about 1.1 µM and inactive = higher.

Study these solved cases before continuing.
# Molecule, GI50
rows = [
    ("CN(NC(=O)/C(=C/C=C/c1ccccc1)NC(=O)c1ccccc1)C1=C(Cl)C(=O)[N+](c2ccccc2)=CC1", "19.8 µM (inactive)"),
    ("COc1cc2c(c(OC)c1)C(=O)C(=O)C(CC1(C)OCCCO1)=C2", "15.3 µM (inactive)"),
    ("CCCC1NC(C#N)(C#N)C(CCC)NC1(C#N)C#N (stereo unspecified)", "6.46 µM (inactive)"),
    ("COC1CC(OC2C(C)OC(OC3C(C)OC(OC4C(C)OC(O[C@H]5CC[C@@]6(C)C(=CC[C@]7(O)[C@@H]6C[C@@H](OC(=O)/C=C(\\C)C(C)C)[C@@]6(C)[C@]7(O)CC[C@@]6(O)C(C)=O)C5)CC4OC)CC3OC)CC2OC)OC(C)C1O (stereo partly specified)", "> 12.5 µM (inactive)"),
    ("[N-]=[N+]=Nc1cc(=O)n(-c2ccccc2)c2ccccc12", "> 100 µM (inactive)"),
    ("COc1cc2c3cc1Oc1cc(ccc1O)C[C@@H]1c4c(cc(OC)c(O)c4Oc4ccc(cc4)C[C@@H]3N(C)CC2)CC[N+]1(C)C", "28.9 µM (inactive)"),
    ("O=c1cc(O)c2c(O)cc(O)cc2o1", "> 100 µM (inactive)"),
    ("NC1=CN(CCCO)C2=N/C(=C\\c3ccccc3)C(=O)N12", "> 100 µM (inactive)"),
]

Entry `CN(NC(=O)c1cccs1)C1=NCCCCN1` has what GI50?
> 100 µM (inactive)

# lookup: GI50 of `CCOc1ccc2nc(NC(=O)c3c/c(=N\NC(=O)C[N+](C)(C)C)c4ccc(O)cc4o3)sc2c1`
2.89 µM (inactive)

Please give the measured GI50 for this molecule: C/C(=N\N)C(CN(C)C)C(c1ccccc1)c1c(O)c2ccccc2oc1=O (stereo unspecified)
> 87.1 µM (inactive)
